SYSTEM_TESTED: VEGF165 (recombinant human vascular endothelial growth factor, 165 aa form) (Homo sapiens, UniProt P15692-4 P15692-4:27-191)
Sequence (P15692 other isoform, or with tags, fused parts or gaps): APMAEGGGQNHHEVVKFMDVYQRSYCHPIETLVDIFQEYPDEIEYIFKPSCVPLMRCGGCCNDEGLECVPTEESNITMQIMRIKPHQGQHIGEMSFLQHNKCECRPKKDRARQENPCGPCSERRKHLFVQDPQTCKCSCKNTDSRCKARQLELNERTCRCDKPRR
EXPERIMENT: filter; PBS, 0.01% HSA, 37 C; Kd1, X1 0.82, Kd2 42 nM
SETUP_CONDITIONS: tags: gift from N. Ferrara, Genentech; chain copies: 2 (dimer, stated); label: 32P
pKd: −log10 of the molar value.

{"columns": ["BINDER", "pKd"],
 "data": [
  ["ligand 100 (ssRNA) RNA: GGGAGCUCAGAAUAAACGCUCAACCGGUAGUCGCAUGGCCCAUCGCGCCCGGUUCGACAUGAGGCCCGGAUCCGGC", 9.70]
]}
